Data provenance: the supplement of paper PMC6555819

system: PPARg:RXRa (NR concentration 180 nM, RXRa partner concentration 90 nM); experiment: PBM binding z-score (relative to random genomic background probes); higher = stronger binding; sequences stand for … in GC…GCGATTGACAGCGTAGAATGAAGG
test.readout: PBM binding z-score

1) GGAACGAGGGCAAGTCGATAGCAGAGTTTGATGG | 0.928
2) TTACCAAGGTGAAAGGTCGTCGATGCACGCCTTG | 9.29
3) TTTCGGAGGACACGAAAGGTCAGAGCTCGACATC | 1.9
4) CGTCCAAGGTCCGCAGGTCAGTGAAAGCGACGTG | -0.507
5) TTACCAAGGTGAGCTGAGGTCGTGGATCCAACTC | 0.337
6) CGTCCAAGGTCATAGAAGGTCAGTGAAGACAGAT | 5.05
7) CGTCCAAGATCAATGCTAGGTCAGTGAAAGCATT | -0.0678
8) CTCGAAAGGTCGGTTGAGGTGAGAATACGGATAA | 0.632
9) TCTTGTAGATCAATAGTGGTTAAGAAAGTGCGCT | -0.385
10) CGTCCAGGGTCAGAGAGGTCAGTGAATGCCGAGT | 3.32
11) TCTATTAGATGAAGGGCAACCGACGAGTCCGTTT | 0.575
12) CCTGCTAGGTCAATGTTCAGCTAAAGCAGCTCGC | 2.51
13) GCTAGCAGGCCATCTGGGTCACTCAATGACGGGC | 1.31
14) ACAGTCAGGTGATGAAGGTAACTCAGGCTATCAT | 0.349
15) GCATATAGGTAATACAAGGTGAGAGTCCGATTGT | 1.14
16) CGAACTAGGTCATCCAGGACAGTAAATACATTGA | 7.87
17) TAGCCTAGGTCATTGGGCCATTATAGTACGCATC | 4.13
18) ATCTCTAGGTAACGAGTTCAGTGAAAGAGAGGAC | 1.69
19) ACTAGAAGGCCAAGTTTGGGTCACTCAAACAAAG | 0.293
20) CCTACTGGGCCAAGGTTATTGATCAGTCAAAGCA | 2.64
21) CCGGGTAGGTTATGGGGCATTCAGGCAACGGTGA | 2.18
22) TCATATAGGTAATGCAGGTGAAAGTCGGCATCTA | 1.65
23) GCTGGCAGGCCATTTGGGTCACTCAATGACGGGC | 0.526
24) TCTAGTTGGTCACGGAGGTCACCCACGACGGGTA | 3.23
25) ATCTCTAGGTAAAGTTCACTGAAAGATCGATAGA | 5.42
26) AACTCTAGGTAACCAAGTTCAGTGAATGCCGAAC | 0.528

* * *

// values below are reported PBM binding z-score
system: PPARg:RXRa DBDmut IVT, anti-RXR (DBD mutation: RXRa K156A/R161A, NR concentration 270 nM, RXRa partner concentration 90 nM); assay: PBM binding z-score (relative to random genomic background probes); higher = stronger binding; sequences stand for … in GC…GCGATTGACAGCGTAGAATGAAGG
test.readout: PBM binding z-score

1. ACTAGTTGGTCAGCTGAGGTCAAACACAATTCGG | 1.45
2. CGAACTAGGACATTGACAGGACAGTGAATAGTAA | 4.34
3. ACTATTAGTTGAGACGAGGGCACCCGATAGGTTG | -0.207
4. CCTTACGGGTCACTGTCAGGTTATAGCATTTGGA | 3.32
5. CGTCCAAGGTCAGCCGGTCAGTGAAAGCGACGTG | 2.51
6. TCATATAGGCAAACAGGTGAAAGTCCGTAAGTTA | 2.62
7. CCCTACGGGTCACTGACAGGTTATAGCATTTGGA | 0.759
8. ATCTATAGGTAAGACTCAGTTCAGTGAAGAACGC | 1
9. ACTAATAGTTGAGACGAGGGCAACCGATAGGTTG | -0.206
10. ACTAGCAGGCCAAGGGTCAGTCAAGATTAGTCCG | 0.997
11. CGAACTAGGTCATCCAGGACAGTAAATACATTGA | 7.97
12. ACAGACAGGTCAGTGAAGGTAACTCAGCTGGACG | 0.901
